details: in DMF, 298.15 K
value_type: solubility (mole fraction)

Input line: What measured solubility (mole fraction) goes with Nc1cc(-c2ccncc2)c[nH]c1=O ?
Output line: 0.000135

###

settings: in ethanol, 318.15 K
value_type: solubility (mole fraction)

Input line: GET /values?readout=solubility (mole fraction)&item= Nc1cc(-c2ccncc2)c[nH]c1=O
Output line: 8.47e-05

###

details: in water, 318.15 K
value_type: solubility (mole fraction)
Respond using a number only.

Input line: solubility (mole fraction) lookup needed for Nc1cc(-c2ccncc2)c[nH]c1=O , thanks.
Output line: 2.3e-06

###

conditions: in ethanol, 278.15 K
value_type: solubility (mole fraction)
Reply: number alone, nothing else.

Input line: Need solubility (mole fraction), item Nc1cc(-c2ccncc2)c[nH]c1=O
Output line: 2.65e-05
